# reported koff; entries follow
Target: T1, Recombinant Human CD14/His Protein (B294801) (human, UniProt P08571 20-352, limits assumed)
T1 construct: Bought His-tagged recombinant human CD14; also called recombinant human CD14 antigen; CD14 antigen; not shown: histidine tag
T1 sequence (looked up): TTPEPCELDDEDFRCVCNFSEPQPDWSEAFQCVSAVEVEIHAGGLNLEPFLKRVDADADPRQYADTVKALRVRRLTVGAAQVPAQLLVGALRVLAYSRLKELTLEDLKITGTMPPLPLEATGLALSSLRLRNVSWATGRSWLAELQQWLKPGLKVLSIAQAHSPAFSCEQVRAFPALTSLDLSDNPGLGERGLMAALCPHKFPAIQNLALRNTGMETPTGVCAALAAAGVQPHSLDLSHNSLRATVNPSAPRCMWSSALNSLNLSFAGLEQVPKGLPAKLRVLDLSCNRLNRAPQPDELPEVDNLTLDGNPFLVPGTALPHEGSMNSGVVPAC
Assay: SPR (Biacore 8K), antibody captured (1 ug/mL) on Protein A chip, CD14-His analyte 0.1953125-25 nM, 1:1 binding

# binder, measurement-unit, koff
data = [
    ("Antibody No. MPDDAD005 (HU1127-hVH3/hVL3-5) (antibody, V domains shown, D6DD3D014 with the light chain PTM site NS (VL amino acids 34, 35) changed to QS; Tested as a recombinant antibody with hFc tag, 144 kDa) VH: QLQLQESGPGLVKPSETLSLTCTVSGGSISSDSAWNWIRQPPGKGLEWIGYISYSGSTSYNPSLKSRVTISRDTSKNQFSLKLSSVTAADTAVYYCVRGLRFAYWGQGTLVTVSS VL: DIQLTQSPSSLSASVGDRVTITCRASESVDSYVQSFLHWYQQKPGKAPKLLIYRASNLQSGVPSRFSGSGSRTDFTLTISSLQPEDVATYYCQQSNEDPYTFGQGTKLEIK", "s⁻¹", 0.00544),
    ("Antibody No. MPDDAD001 (HU1127-hVH3/hVL3-1) (antibody, IgG1, V domains shown, D6DD3D014 with the light chain PTM site NS (VL amino acids 34, 35) changed to DS; Tested as a recombinant antibody with hFc tag, 144 kDa) VH: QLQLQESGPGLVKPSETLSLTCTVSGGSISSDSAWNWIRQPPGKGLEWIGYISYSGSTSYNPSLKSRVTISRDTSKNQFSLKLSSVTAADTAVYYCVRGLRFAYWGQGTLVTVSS VL: DIQLTQSPSSLSASVGDRVTITCRASESVDSYVDSFLHWYQQKPGKAPKLLIYRASNLQSGVPSRFSGSGSRTDFTLTISSLQPEDVATYYCQQSNEDPYTFGQGTKLEIK", "s⁻¹", 0.00633),
    ("Antibody No. MPDDAD003 (HU1127-hVH3/hVL3-3) (antibody, V domains shown, D6DD3D014 with the light chain PTM site NS (VL amino acids 34, 35) changed to TS; Tested as a recombinant antibody with hFc tag, 144 kDa) VH: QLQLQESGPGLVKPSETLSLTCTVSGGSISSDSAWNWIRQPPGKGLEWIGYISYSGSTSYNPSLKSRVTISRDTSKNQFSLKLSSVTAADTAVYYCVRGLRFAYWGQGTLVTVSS VL: DIQLTQSPSSLSASVGDRVTITCRASESVDSYVTSFLHWYQQKPGKAPKLLIYRASNLQSGVPSRFSGSGSRTDFTLTISSLQPEDVATYYCQQSNEDPYTFGQGTKLEIK", "s⁻¹", 0.0026),
]

Where do these numbers come from? They come from patent US20250011456A1.
